Target: T1, PUF4 RNA-binding domain (Saccharomyces cerevisiae, UniProt P25339 537-888)
T1 sequence: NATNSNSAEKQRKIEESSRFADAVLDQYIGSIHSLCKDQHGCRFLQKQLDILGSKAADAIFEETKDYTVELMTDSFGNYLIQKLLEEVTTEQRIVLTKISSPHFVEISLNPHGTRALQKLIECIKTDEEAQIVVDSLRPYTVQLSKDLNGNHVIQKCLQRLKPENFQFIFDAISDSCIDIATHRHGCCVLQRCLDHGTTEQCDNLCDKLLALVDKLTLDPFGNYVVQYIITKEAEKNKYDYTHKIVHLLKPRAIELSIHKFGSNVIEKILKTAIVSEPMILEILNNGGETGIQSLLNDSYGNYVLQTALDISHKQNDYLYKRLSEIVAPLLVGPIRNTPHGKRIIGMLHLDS
Assay: Mg; RNA-MaP; 20 mM Na-HEPES pH 7.4, 30 mM KOAc, 0.75 mM MgCl2, 0.1% Tween-20, 5% glycerol, 0.1 mg/mL BSA, 2 mM DTT; 25 C; 0.0125-409.6 nM protein
Settings: tags: N-His6-TEV cleaved; C-SNAP kept, Cy3B-labelled; label: tethered on chip by stalled RNA polymerase
pKd: −log10 of the molar value.
Threshold check on pKd: at or above 7 gives Satisfied, strictly below gives Not satisfied.

| binder | category |
| --- | --- |
| Id_ii_S2_P3E.2_K3.1_C3.2_[C-2G]_[T-1C]_H3.1_A3.1_F3.1_T3.2_[A10T] (ssRNA) RNA: UUUGAUUAAUAUGAUAUCGUUCUUUCUGCUGUAUAUAUUUUCUUUCUCGAUAUCAUAUUAAUCUUU | Satisfied |

Asked: Could you tell me if the measured pKd of Ie_S2_P4E.1_K4.1_C4.1_H4.1_[+3TCTCT]_A4.1_F4.1_T4.1 (ssRNA) RNA: UUUGAUUAAUAUGAUAUCGUUCUUUCUUGUUCUCUAUAUUAUUCUUUCUCGAUAUCAUAUUAAUCUUU reaches 7 or more?
Given back: Satisfied

Asked: Could you tell me if the measured pKd of Ic_S4_P5E.1_K5.1_C5.1_H5.1_A5.1_[T5A]_[T6C]_[A7C]_F5.1_[T9A]_[A10G]_T5.1 (ssRNA) RNA: UUUGACAACUGAUCGUUCUUUCUUGUAACCUAGUUCUUUCUCGAUCAGUUGUCUUU reaches 7 or more?
Given back: Satisfied

Asked: Could you tell me if the measured pKd of Ic_S2_P4E.1_K4.1_C4.1_H4.1_A4.1_[A6T]_[T7A]_F4.1_T4.1 (ssRNA) RNA: UUUGAUUAAUAUGAUAUCGUUCUUUCUUGUAUUAUAUUCUUUCUCGAUAUCAUAUUAAUCUUU reaches 7 or more?
Given back: Satisfied

Asked: Could you tell me if the measured pKd of UCUCUUGACUAUAUAUAUAUCUCUU (ssRNA) [Id_i_S1_P3E.6_K3.2_C3.3_[T-3G]_[C-2A]_[T-1C]_H3.2_A3.1_F3.1_T3.2] reaches 7 or more?
Given back: Not satisfied

Asked: Could you tell me if the measured pKd of ACAAACAAUAUAUAUUACGACAAAC (ssRNA) [Id_ii_S3_P4E.3_K4.2_C4.2_[C-2A]_[T-1A]_H4.2_A4.1_F4.1_T4.2_[G10C]_[T11G]] reaches 7 or more?
Given back: Satisfied
